B1: glmS ribozyme (parent)
chain: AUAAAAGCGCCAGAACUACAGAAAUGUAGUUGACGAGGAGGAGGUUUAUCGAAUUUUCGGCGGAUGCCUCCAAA

Variants of: B1
Experiment: self-cleavage kobs at 640 uM GlcN6P; higher = faster cleavage; RNA array
Details: with glucosamine-6-phosphate
Variants at the floor of the assay were thinned out.
observable: self-cleavage kobs at 640 uM GlcN6P

Ask | I have this variant here, C11U U31A , and I need its recorded self-cleavage kobs at 640 uM GlcN6P.
Reply | 0.000376 s⁻¹

Ask | I have this variant here, G40A U57A C71U , and I need its recorded self-cleavage kobs at 640 uM GlcN6P.
Reply | 6.1e-05 s⁻¹

Ask | I have this variant here, G29U A33U G43C G60C G62U C71G , and I need its recorded self-cleavage kobs at 640 uM GlcN6P.
Reply | < 1e-05 s⁻¹

Ask | I have this variant here, G9U U30C U65G C70U , and I need its recorded self-cleavage kobs at 640 uM GlcN6P.
Reply | < 1e-05 s⁻¹

Ask | I have this variant here, A12C A15C , and I need its recorded self-cleavage kobs at 640 uM GlcN6P.
Reply | 0.000451 s⁻¹

Ask | I have this variant here, U56G C67G , and I need its recorded self-cleavage kobs at 640 uM GlcN6P.
Reply | 0.00028 s⁻¹

Ask | I have this variant here, G29U A39G G59U C67U , and I need its recorded self-cleavage kobs at 640 uM GlcN6P.
Reply | < 1e-05 s⁻¹

Ask | I have this variant here, C16A A36U A42G A48G G51U U54G , and I need its recorded self-cleavage kobs at 640 uM GlcN6P.
Reply | < 1e-05 s⁻¹

Ask | I have this variant here, A6U C16U U54A , and I need its recorded self-cleavage kobs at 640 uM GlcN6P.
Reply | 4.1e-05 s⁻¹

Ask | I have this variant here, A15C C16U U56C , and I need its recorded self-cleavage kobs at 640 uM GlcN6P.
Reply | 7.03e-05 s⁻¹

Ask | I have this variant here, U47G G59A C67G , and I need its recorded self-cleavage kobs at 640 uM GlcN6P.
Reply | 0.000579 s⁻¹

Ask | I have this variant here, C11U G32C C50G A52U , and I need its recorded self-cleavage kobs at 640 uM GlcN6P.
Reply | < 1e-05 s⁻¹

Ask | I have this variant here, G29U C34U , and I need its recorded self-cleavage kobs at 640 uM GlcN6P.
Reply | < 1e-05 s⁻¹

Ask | I have this variant here, A36C U46G U54A U55G , and I need its recorded self-cleavage kobs at 640 uM GlcN6P.
Reply | < 1e-05 s⁻¹

Ask | I have this variant here, A6U G35C C68G C70U , and I need its recorded self-cleavage kobs at 640 uM GlcN6P.
Reply | 0.000713 s⁻¹

Ask | I have this variant here, C16U U49G , and I need its recorded self-cleavage kobs at 640 uM GlcN6P.
Reply | 0.000174 s⁻¹

Ask | I have this variant here, U30A G51U A53C G59A G60C C70G , and I need its recorded self-cleavage kobs at 640 uM GlcN6P.
Reply | < 1e-05 s⁻¹

Ask | I have this variant here, C8G C11G A14C A39G C50G , and I need its recorded self-cleavage kobs at 640 uM GlcN6P.
Reply | 8.19e-05 s⁻¹

Ask | I have this variant here, A33C U47A , and I need its recorded self-cleavage kobs at 640 uM GlcN6P.
Reply | 4.21e-05 s⁻¹

Ask | I have this variant here, C11A C16U , and I need its recorded self-cleavage kobs at 640 uM GlcN6P.
Reply | 6.65e-05 s⁻¹

Ask | I have this variant here, C8G G9U C10G , and I need its recorded self-cleavage kobs at 640 uM GlcN6P.
Reply | < 1e-05 s⁻¹

Ask | I have this variant here, A33G G43U G59U A64G , and I need its recorded self-cleavage kobs at 640 uM GlcN6P.
Reply | < 1e-05 s⁻¹

Ask | I have this variant here, A42C A53C , and I need its recorded self-cleavage kobs at 640 uM GlcN6P.
Reply | < 1e-05 s⁻¹

Ask | I have this variant here, C10U A33G U54A , and I need its recorded self-cleavage kobs at 640 uM GlcN6P.
Reply | < 1e-05 s⁻¹

Ask | I have this variant here, C16A A42G , and I need its recorded self-cleavage kobs at 640 uM GlcN6P.
Reply | 0.00062 s⁻¹

Ask | I have this variant here, C10G C11A C16A C58G C71G , and I need its recorded self-cleavage kobs at 640 uM GlcN6P.
Reply | 0.00176 s⁻¹

Ask | I have this variant here, C11U C50G C58A , and I need its recorded self-cleavage kobs at 640 uM GlcN6P.
Reply | 0.000189 s⁻¹

Ask | I have this variant here, G44C A48U , and I need its recorded self-cleavage kobs at 640 uM GlcN6P.
Reply | < 1e-05 s⁻¹

Ask | I have this variant here, G13A G29C G66U , and I need its recorded self-cleavage kobs at 640 uM GlcN6P.
Reply | < 1e-05 s⁻¹

Ask | I have this variant here, A48C C70A , and I need its recorded self-cleavage kobs at 640 uM GlcN6P.
Reply | < 1e-05 s⁻¹

Ask | I have this variant here, C10U G63A , and I need its recorded self-cleavage kobs at 640 uM GlcN6P.
Reply | < 1e-05 s⁻¹

Ask | I have this variant here, G41C A48U C71U , and I need its recorded self-cleavage kobs at 640 uM GlcN6P.
Reply | < 1e-05 s⁻¹

Ask | I have this variant here, U31A A33G C34U G59C , and I need its recorded self-cleavage kobs at 640 uM GlcN6P.
Reply | < 1e-05 s⁻¹

Ask | I have this variant here, C8G U30A , and I need its recorded self-cleavage kobs at 640 uM GlcN6P.
Reply | < 1e-05 s⁻¹

Ask | I have this variant here, A6U C8A U31G , and I need its recorded self-cleavage kobs at 640 uM GlcN6P.
Reply | < 1e-05 s⁻¹

Ask | I have this variant here, C58G C68A U69G , and I need its recorded self-cleavage kobs at 640 uM GlcN6P.
Reply | 0.000107 s⁻¹

Ask | I have this variant here, G29U A42U , and I need its recorded self-cleavage kobs at 640 uM GlcN6P.
Reply | < 1e-05 s⁻¹

Ask | I have this variant here, A6C A12G , and I need its recorded self-cleavage kobs at 640 uM GlcN6P.
Reply | < 1e-05 s⁻¹

Ask | I have this variant here, C11G G32A U65G , and I need its recorded self-cleavage kobs at 640 uM GlcN6P.
Reply | < 1e-05 s⁻¹

Ask | I have this variant here, A6G A33U U57C C58A , and I need its recorded self-cleavage kobs at 640 uM GlcN6P.
Reply | < 1e-05 s⁻¹

Ask | I have this variant here, C11A G59C , and I need its recorded self-cleavage kobs at 640 uM GlcN6P.
Reply | < 1e-05 s⁻¹

Ask | I have this variant here, A24C U47G C67A , and I need its recorded self-cleavage kobs at 640 uM GlcN6P.
Reply | 0.000315 s⁻¹

Ask | I have this variant here, G13A G63U , and I need its recorded self-cleavage kobs at 640 uM GlcN6P.
Reply | < 1e-05 s⁻¹

Ask | I have this variant here, G7A A39G A64C C71U , and I need its recorded self-cleavage kobs at 640 uM GlcN6P.
Reply | < 1e-05 s⁻¹

Ask | I have this variant here, U31C G51A , and I need its recorded self-cleavage kobs at 640 uM GlcN6P.
Reply | < 1e-05 s⁻¹

Ask | I have this variant here, A42G U54A , and I need its recorded self-cleavage kobs at 640 uM GlcN6P.
Reply | 0.029 s⁻¹

Ask | I have this variant here, C16U A33U , and I need its recorded self-cleavage kobs at 640 uM GlcN6P.
Reply | 3.18e-05 s⁻¹

Ask | I have this variant here, C11G G35C A52U , and I need its recorded self-cleavage kobs at 640 uM GlcN6P.
Reply | < 1e-05 s⁻¹

Ask | I have this variant here, G7A G37U , and I need its recorded self-cleavage kobs at 640 uM GlcN6P.
Reply | < 1e-05 s⁻¹

Ask | I have this variant here, C50G G60C C70A , and I need its recorded self-cleavage kobs at 640 uM GlcN6P.
Reply | 0.000161 s⁻¹

Ask | I have this variant here, A15G G38U G59C , and I need its recorded self-cleavage kobs at 640 uM GlcN6P.
Reply | < 1e-05 s⁻¹

Ask | I have this variant here, A1U U2G A3G A5U , and I need its recorded self-cleavage kobs at 640 uM GlcN6P.
Reply | 0.00274 s⁻¹

Ask | I have this variant here, C8G C16A , and I need its recorded self-cleavage kobs at 640 uM GlcN6P.
Reply | < 1e-05 s⁻¹

Ask | I have this variant here, C8G G66U , and I need its recorded self-cleavage kobs at 640 uM GlcN6P.
Reply | < 1e-05 s⁻¹

Ask | I have this variant here, A33G G59C , and I need its recorded self-cleavage kobs at 640 uM GlcN6P.
Reply | < 1e-05 s⁻¹

Ask | I have this variant here, C10G G51C C58A , and I need its recorded self-cleavage kobs at 640 uM GlcN6P.
Reply | < 1e-05 s⁻¹

Ask | I have this variant here, A15C A39U A42C C67G , and I need its recorded self-cleavage kobs at 640 uM GlcN6P.
Reply | < 1e-05 s⁻¹

Ask | I have this variant here, C19A U30A , and I need its recorded self-cleavage kobs at 640 uM GlcN6P.
Reply | 0.000125 s⁻¹

Ask | I have this variant here, A14U U46G G60A C71A , and I need its recorded self-cleavage kobs at 640 uM GlcN6P.
Reply | < 1e-05 s⁻¹

Ask | I have this variant here, A12G G41A G59U , and I need its recorded self-cleavage kobs at 640 uM GlcN6P.
Reply | < 1e-05 s⁻¹

Ask | I have this variant here, A6C A15U A36C G43A U46G C50U A53U C61U , and I need its recorded self-cleavage kobs at 640 uM GlcN6P.
Reply | < 1e-05 s⁻¹

Ask | I have this variant here, C8G C16G , and I need its recorded self-cleavage kobs at 640 uM GlcN6P.
Reply | < 1e-05 s⁻¹

Ask | I have this variant here, C10G G41C G63U , and I need its recorded self-cleavage kobs at 640 uM GlcN6P.
Reply | < 1e-05 s⁻¹

Ask | I have this variant here, G38C U54G , and I need its recorded self-cleavage kobs at 640 uM GlcN6P.
Reply | < 1e-05 s⁻¹

Ask | I have this variant here, C8A C67G , and I need its recorded self-cleavage kobs at 640 uM GlcN6P.
Reply | < 1e-05 s⁻¹

Ask | I have this variant here, A53U C70U , and I need its recorded self-cleavage kobs at 640 uM GlcN6P.
Reply | 0.00682 s⁻¹

Ask | I have this variant here, G7A C11U A52U C58A G62U , and I need its recorded self-cleavage kobs at 640 uM GlcN6P.
Reply | < 1e-05 s⁻¹

Ask | I have this variant here, G29U G37A U49A C58G G62U , and I need its recorded self-cleavage kobs at 640 uM GlcN6P.
Reply | < 1e-05 s⁻¹

Ask | I have this variant here, G41A G60C , and I need its recorded self-cleavage kobs at 640 uM GlcN6P.
Reply | < 1e-05 s⁻¹

Ask | I have this variant here, G9A G32C C61U , and I need its recorded self-cleavage kobs at 640 uM GlcN6P.
Reply | < 1e-05 s⁻¹

Ask | I have this variant here, G9C G41U G44C , and I need its recorded self-cleavage kobs at 640 uM GlcN6P.
Reply | < 1e-05 s⁻¹

Ask | I have this variant here, G13C G44C , and I need its recorded self-cleavage kobs at 640 uM GlcN6P.
Reply | < 1e-05 s⁻¹

Ask | I have this variant here, G29U A64U , and I need its recorded self-cleavage kobs at 640 uM GlcN6P.
Reply | < 1e-05 s⁻¹

Ask | I have this variant here, A12U U31G U47C , and I need its recorded self-cleavage kobs at 640 uM GlcN6P.
Reply | 0.000923 s⁻¹

Ask | I have this variant here, A14U G43C , and I need its recorded self-cleavage kobs at 640 uM GlcN6P.
Reply | < 1e-05 s⁻¹

Ask | I have this variant here, G41C U54G , and I need its recorded self-cleavage kobs at 640 uM GlcN6P.
Reply | 0.000123 s⁻¹

Ask | I have this variant here, U30C C58G C68A , and I need its recorded self-cleavage kobs at 640 uM GlcN6P.
Reply | 9.15e-05 s⁻¹

Ask | I have this variant here, A39C U55G , and I need its recorded self-cleavage kobs at 640 uM GlcN6P.
Reply | 0.00104 s⁻¹

Ask | I have this variant here, C8A G32A G66U , and I need its recorded self-cleavage kobs at 640 uM GlcN6P.
Reply | < 1e-05 s⁻¹

Ask | I have this variant here, A6C G44U , and I need its recorded self-cleavage kobs at 640 uM GlcN6P.
Reply | < 1e-05 s⁻¹

Ask | I have this variant here, G40U U47C A53C U54A , and I need its recorded self-cleavage kobs at 640 uM GlcN6P.
Reply | 7.34e-05 s⁻¹
